Test system: UACC-62 melanoma
Experiment: NCI-60 one-dose screen, 48 h
Conditions: 10 µM
This is part of a sample that, as a whole, favours compounds with a hit. Of some 83,000 tested, about 20% had one in any assay. Calls of active or inactive are those of the source. Rule for the calls: active = growth percent below 10; inactive = the rest.
// classify into Yes (active), No (inactive)

Problem: What is the recorded call for this molecule in the test? `COc1cc(-c2nn(-c3ccc(NC(=O)NCCCNC(=O)c4ccccc4)cc3)cc2-c2ccncc2)ccc1Cl`
Result: No

Problem: What is the recorded call for this molecule in the test? O=c1[nH]c(=O)n(C2C[C@H](O)[C@@H](CO)O2)cc1C(F)(F)F (some centres undefined)
Result: No

Problem: What is the recorded call for this molecule in the test? `Nc1nccc(OCCO)n1`
Result: No

Problem: What is the recorded call for this molecule in the test? Nc1ccc(-c2cccs2)cc1NC(=O)c1ccc(CCCC(=O)Nc2ccc(C3CC3N)cc2)cc1 (centres undefined)
Result: No

Problem: What is the recorded call for this molecule in the test? `COc1ccc(-c2cc(-c3ccc(Cl)cc3)nc(SCCCC(=O)NO)n2)cc1`
Result: Yes

Problem: What is the recorded call for this molecule in the test? `COc1cc(-c2ccc[nH]2)[nH]c1/C=C1\N=C(C)C(C(=O)NC(C)C)=C1C`
Result: Yes

Problem: What is the recorded call for this molecule in the test? `Nc1ncc(-c2cnn(C3CCNCC3)c2)cc1-c1nc2ccccc2o1`
Result: Yes

Problem: What is the recorded call for this molecule in the test? `O=C1Cc2cc(CCN3CCN(c4nsc5ccccc45)CC3)c(Cl)cc2N1`
Result: No

Problem: What is the recorded call for this molecule in the test? `C=C/C(C)=C/C[C@]1(C)[C@H](C)[C@@H](OC(=O)CCC)[C@H](O)[C@@]23C(=C[C@H](OC)C[C@@H]12)[C@@H](OC(=O)CCC)O[C@H]3OC(C)=O`
Result: Yes

Problem: What is the recorded call for this molecule in the test? `CCn1c2ccc(O)cc2c2c(C)c3c[n+](C)ccc3c(C)c21`
Result: No

Problem: What is the recorded call for this molecule in the test? `COc1cc(-c2nn(-c3ccc(NC(=O)NCCNS(=O)(=O)c4ccc(F)cc4)cc3)cc2-c2ccncc2)ccc1Cl`
Result: No

Problem: What is the recorded call for this molecule in the test? CCOC(=O)C1=CSC2=NC3=C(CCC/C3=C\c3cc(OC)c(OC)c(OC)c3)C(c3cc(OC)c(OC)c(OC)c3)N12 (centres undefined)
Result: No

Problem: What is the recorded call for this molecule in the test? `CC(C)(C)c1ccc(S(=O)(=O)N[C@H]2CC[C@H]3[C@@H]4CCc5cc(OS(=O)(=O)O)ccc5[C@H]4CC[C@]23C)cc1`
Result: No

Problem: What is the recorded call for this molecule in the test? CC(=O)O[C@@]12CO[C@@H]1C[C@H](O)[C@@]1(C)C(=O)[C@H](O)C3=C(C)[C@@H](OC(=O)[C@H](O)[C@@H](NC(=O)OC(C)(C)C)c4ccccc4)C[C@@](O)([C@@H](OC(=O)c4ccccc4)C12)C3(C)C (some centres undefined)
Result: No

Problem: What is the recorded call for this molecule in the test? CC1/C=C/C=C/C=C/C=C/C=C/C=C/C=C/C(O[C@@H]2O[C@H](C)[C@H](O)[C@@H](O)[C@@H]2N)CC(O)C(C(=O)O)C(O)CC(=O)CC(O)CC(O)CC(O)CC(=O)CCCC(=O)CC(=O)OC1C(C)CC(C)C(O)CC(=O)c1ccc(N)cc1 (some centres undefined)
Result: Yes

Problem: What is the recorded call for this molecule in the test? `COc1cc2c(cc1NC(=O)C(Cl)Cl)-c1ccc(NC(=O)C(Cl)Cl)cc1C2`
Result: Yes

Problem: What is the recorded call for this molecule in the test? `Nc1ccc(CC[C@H]2CCC/C=C/[C@@H]3C[C@H](O)C[C@H]3[C@H](O)/C=C/C(=O)O2)cc1`
Result: No

Problem: What is the recorded call for this molecule in the test? CCc1cc(Cl)c(OC)c(C(=O)NCC2CCCN2CC)c1O (centres undefined)
Result: No

Problem: What is the recorded call for this molecule in the test? `Nc1nc(-c2cccnc2)nc2c1sc(=S)n2-c1ccccc1`
Result: No

Problem: What is the recorded call for this molecule in the test? CC(=O)C1CCC2C3CC=C4CC(SC(=N)N)CCC4(C)C3CCC12C (centres undefined)
Result: No

Problem: What is the recorded call for this molecule in the test? `O=[N+]([O-])c1ccc2ncccc2c1Cl`
Result: No

Problem: What is the recorded call for this molecule in the test? CC(C)[N+]1(C)C2CC[C@@H]1CC(OC(=O)C(CO)c1ccccc1)C2 (some centres undefined)
Result: No

Problem: What is the recorded call for this molecule in the test? `CCOC(=O)c1cc(C(=O)c2ccc(F)cc2F)n2ccccc12`
Result: No

Problem: What is the recorded call for this molecule in the test? `O=C(CSc1nccc(Nc2cccc3ccccc23)n1)c1ccc(Cl)cc1`
Result: No

Problem: What is the recorded call for this molecule in the test? `COc1ccc(-c2onc(N)c2-c2cc(OC)c3c(c2)OCO3)cc1`
Result: No

Problem: What is the recorded call for this molecule in the test? CCCCCOC(=O)Nc1nc(=O)n(C2O[C@H](C)[C@@H](O)[C@H]2O)cc1F (some centres undefined)
Result: No

Problem: What is the recorded call for this molecule in the test? `Cc1cccc(N=Cc2ccccc2O)c1C`
Result: No

Problem: What is the recorded call for this molecule in the test? `O=C(O)c1cn(C2CC2)c2cc(N3CCN(C(=O)c4cc(-c5ccc(Cl)cc5)nc5ccccc45)CC3)c(F)cc2c1=O`
Result: No

Problem: What is the recorded call for this molecule in the test? `COc1ccc(-c2nn(-c3cccc(Cl)c3)cc2-c2cc(-c3ccccc3)nc(N)n2)cc1`
Result: No

Problem: What is the recorded call for this molecule in the test? CC[C@@H](C(=O)[C@@H](C)[C@@H](O)[C@H](C)[C@@H]1O[C@@H]([C@@H](CC)C(=O)N(CC)CC)CC[C@@H]1C)C1O[C@]2(C=CC(=O)[C@]3(CC[C@@](C)([C@H]4CC[C@](O)(CC)[C@H](C)O4)O3)O2)[C@H](C)C[C@@H]1C (some centres undefined)
Result: No

Problem: What is the recorded call for this molecule in the test? `CC(C)(C)OC(=O)N1CCc2c(sc3ncnc(N/N=C/c4cccc(Br)c4)c23)C1`
Result: No

Problem: What is the recorded call for this molecule in the test? `CC(C)(C)OC(=O)CN1CCc2c(sc3ncnc(N/N=C/c4ccccc4Br)c23)C1`
Result: No

Problem: What is the recorded call for this molecule in the test? `Brc1ccc2c(c1)-c1ccccc1C1=NCCN12`
Result: Yes

Problem: What is the recorded call for this molecule in the test? `CC(=O)[C@H]1CC[C@]2(C)[C@@H]1CC[C@@H]1[C@@]3(C)CC(CCC#N)(CCC#N)C(=O)C(C)(C)[C@@H]3CC[C@]12C`
Result: No

----------
Tested on: MOLT-4 leukemia
Assay: NCI-60 one-dose screen, 48 h (100 = growth as untreated, 0 = no growth, -100 = all killed)
Settings: 10 µM
The panel holds about 83,000 compounds, 20% with a hit somewhere; the sample as a whole holds those more often.
# cutoff 10% applies to growth; >= gives Yes, < gives No

Problem: Hi team, for `COc1ccc2c(c1)C(=O)/C(=C/c1cccc(OCC(=O)c3ccc([N+](=O)[O-])cc3)c1)CO2` , is the recorded growth at or above 10%?
Result: No

Problem: Hi team, for COc1ccc(C(c2ccc(OCCN(C)C)cc2)c2cc3ccccc3c3ccccc23)cc1 (centres undefined) , is the recorded growth at or above 10%?
Result: No

Problem: Hi team, for O=C(Nc1cc(Cl)cc2c1-c1ccc(Cl)cc1C2O)C(Cl)Cl (centres undefined) , is the recorded growth at or above 10%?
Result: Yes

Problem: Hi team, for `CC(C)(C)OC(=O)N1CCc2c(sc3ncnc(N/N=C/c4ccc(Br)cc4)c23)C1` , is the recorded growth at or above 10%?
Result: Yes

Problem: Hi team, for `O=C(CCCSc1nc(-c2ccccc2)cc(-c2ccc(Cl)cc2)n1)NO` , is the recorded growth at or above 10%?
Result: Yes

Problem: Hi team, for `Cc1ccc2nc(Cl)c(-c3nc4ccccc4o3)cc2c1` , is the recorded growth at or above 10%?
Result: Yes

Problem: Hi team, for `C=C(C)[C@@H]1CC[C@]2(COCCC#N)CC[C@]3(C)[C@H](CC[C@@H]4[C@@]5(C)Cc6c([nH]c7ccccc67)C(C)(C)[C@@H]5CC[C@]43C)[C@@H]12` , is the recorded growth at or above 10%?
Result: Yes

Problem: Hi team, for `COc1ccc(-c2nn(-c3cccc(Cl)c3)cc2/C=C2\NC(=S)N(c3ccc(Cl)cc3)C2=O)cc1` , is the recorded growth at or above 10%?
Result: No

Problem: Hi team, for COc1ccc(/C=C2\CCCC3C2=Nc2ccccc2NC3c2ccc(OC)cc2)cc1 (centres undefined) , is the recorded growth at or above 10%?
Result: Yes
